Entry source: PubChem BioAssay

# Assay remarks: Pseudomonas biofilm growth suppression – PAO1 strain, BacTiter-Glo luminescence, LB-PBS, primary screen (AID 1144)
# Test settings: P. aeruginosa PAO1 biofilm, 12 h, higher = more signal
Classes by z-score: label 0: < -0.06; label 1: ≥ -0.06 and < 0.4; label 2: ≥ 0.4

# example entries with known answers
C=CC[C@@]1(C(=O)N(C)C)N=C(c2ccc(OCCCO)cc2)O[C@@H]1c1ccccc1CN=[N+]=[N-]    label 2
Cc1ccccc1C(O)C1C=CC2C(=O)N(c3ccccc3)C(=O)C2N1Nc1ccccc1 (stereo not given)    label 0
O=C(O)[C@H](Cc1ccccc1)n1cc(C2(O)CCCCC2)nn1    label 2
O=C1C2C=CC(C(O)c3cccs3)N(Nc3ccc([N+](=O)[O-])cc3)C2C(=O)N1c1ccccc1 (stereo not given)    label 2
CCCC=C(CCC)[C@@H](NC(=O)c1ccc(C(F)(F)F)cc1)c1ccc(C(F)(F)F)cc1    label 2

Given C=C(COC)C(=O)CC[C@@H](OC(=O)c1ccccc1-c1ccccc1C(=O)O)c1ccc(OCCO)cc1 , name the class its z-score places it in.
label 0

One more compound: COc1ccc(C(O)C2C=CC3C(=O)N(c4ccccc4)C(=O)C3N2Nc2ccc([N+](=O)[O-])cc2)c2ccccc12 (stereo not given)
label 0

Also check CCCC#C[Si](O[C@H](CC)c1cn(Cc2ccccc2)nn1)(C(C)C)C(C)C
label 1

Try this compound next: CN1C(=O)[C@@H]2[C@@H](CC(COc3ccccc3)=C3[C@@H](CCc4ccccc4)OB(O)C[C@@H]32)C1=O
label 1

----------
Reported z-score values for the following compounds.
# Assay remarks: growth modulation of vineyard yeast isolate – strain RM11-1a, OD600, basal, 24 h, primary screen (AID 1177);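 note: cultures grown under basal conditions with no added stressor; test concentration not given here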
# Test settings: S. cerevisiae RM11-1a growth, OD600, 24 h; higher = more signal, called active from +8 up or from −8 down
Calls of active or inactive are those of the source.

Please review the entries below; each comes with its answer.
COCCOC(=O)N1C(=O)[C@@]2(c3cc(C#CCC(C(=O)OC)C(=O)OC)ccc31)[C@H](C(N)=O)[C@H]1C(=O)O[C@H](c3ccccc3)[C@H](c3ccccc3)N1[C@@H]2c1ccc(O)cc1    3.96 (inactive)
COc1ccc(CCNC(=O)[C@@H]2c3ccccc3C(=O)N(Cc3ccccc3OC)[C@H]2c2ccc(CO)cc2)cc1    -0.341 (inactive)
CCC(CC)C(O)C1C=CC2C(=O)N(c3ccccc3)C(=O)C2N1Nc1ccccc1F (stereo unspecified)    -0.0886 (inactive)
C=CCC(OC(C)=O)[C@@H]1[C@@H](N(Cc2cccc3ccccc23)C(=O)Cc2ccc(OC)cc2)c2cc(OCCCO)ccc2N1C(=O)c1ccc2ccccc2c1 (stereo partly specified)    -0.958 (inactive)
COCCOC(=O)N1C(=O)[C@@]2(c3cc(C#CCC(C(=O)OC)C(=O)OC)ccc31)[C@H](c1ccc(O)cc1)N1[C@H](c3ccccc3)[C@H](c3ccccc3)OC(=O)[C@H]1[C@@H]2C(=O)Nc1nc2ccccc2s1    0.559 (inactive)

--- query ---
Item COCCOC(=O)N1C(=O)[C@@]2(c3cc(C#CCC(C(=O)OC)C(=O)OC)ccc31)[C@H](C(=O)Nc1nc3ccccc3s1)[C@H]1C(=O)O[C@H](c3ccccc3)[C@H](c3ccccc3)N1[C@@H]2c1ccc(O)cc1 has what recorded z-score?
0.404 (inactive)
